tested on: SK-MEL-2 melanoma; assay: NCI-60 one-dose screen, 48 h; settings: 10 µM unless noted
This is part of a sample that, as a whole, favours compounds with a hit. Of some 83,000 tested, about 20% had one in any assay. Activity calls are given as the source filed them. How the source made its calls: active means growth percent below 10; inactive means the rest.
Tick one outcome: Y for active, N for inactive

Example entries and their recorded answers appear below.
# compound, targetSystem, classification
measured = [
    ("Cc1c(Cl)ccc2c(C(=O)Cl)cc(-c3ccccc3)nc12", "SK-MEL-2 melanoma", "N"),
    ("Cc1cccc(NCS(=O)(=O)O)c1", "SK-MEL-2 melanoma", "N"),
]

query: Which outcome was assigned to CC(=O)Nc1ccc([I+]c2ccc([N+](=O)[O-])cc2)cc1 in this test?
result: N

query: Which outcome was assigned to Nc1ccc(S(=O)(=O)Nc2ccnn2-c2ccccc2)cc1 in this test?
result: N

query: Which outcome was assigned to CCN(CC)CCNc1ccc([N+](=O)[O-])c2sc3cc(Cl)ccc3c(=O)c12 in this test?
result: N

###

system: MDA-MB-435 melanoma; test: NCI-60 one-dose screen, 48 h; conditions: 10 µM unless noted
The panel holds about 83,000 compounds, 20% with a hit somewhere; the sample as a whole holds those more often. Activity calls are given as the source filed them. Rule for the calls: active = growth percent below 10; inactive = the rest.
Tick one outcome: yes (1) = active, no (0) = inactive

Example entries and their recorded answers appear below.
# compound, classification
records = [
    ("S=C=NP1(N=C=S)=NP(N=C=S)(N=C=S)=NP(N=C=S)(N=C=S)=NP(N=C=S)(N=C=S)=N1 (stereo not given)", "no (0)"),
    ("COc1cc(C(=O)C[n+]2ccccc2)ccc1OC(C)=O", "no (0)"),
    ("O=c1c2ccccc2sc2c(NCCCNCCO)nc3ccccc3c12", "yes (1)"),
    ("CCC(CC(C)C)Nc1ccc(NC(CC)CC(C)C)cc1 (stereo not given)", "no (0)"),
    ("O=C(Nc1ccc(-n2ccc3c(NC(=O)c4ccccc4)ncnc32)cc1)Nc1ccc(Cl)c(C(F)(F)F)c1", "yes (1)"),
]

query: Which outcome was assigned to COc1ccc(Cl)cc1NC(=O)c1cc2c([nH]1)-c1nc(NC(=O)C(C)(C)C)sc1CC2 in this test?
result: no (0)

###

Listing: growth of selected molecules
System: BT-549 breast
Test: NCI-60 one-dose screen, 48 h (100 = growth as untreated, 0 = no growth, -100 = all killed)
Conditions: 10 µM unless noted
Method: Growth inhibition of the BT-549 human tumor cell line is measured as a screen for anti-cancer activity. Cells are grown in 96 well plates and exposed to the test compound for 48 hours. Compounds are tested at a single concentration, which is 10^-5 M for most compounds. The reported endpoint is percent growth (GI% or GIPRCNT), where numbers from 0 - 100% represent growth inhibition, and numbers from -100% - 0 represent cell death. For example, a value of 40 represents 60% growth inhibition. […]
About 83,000 compounds went through this panel and 20% of them were active in at least one assay; those are over-represented in the sample as a whole.
Give just the numeric value; % need not be written.

# molecule, growth (%)
rows = [
    ("Cc1cc(-c2ccccc2)nc2ccccc12", 108),
    ("C=C1C(=O)O[C@H]2[C@H]1CC/C(CNC(=O)/C1=C/CC[C@@]3(C)O[C@H]3[C@H]3OC(=O)C(=C)[C@@H]3CC1)=C\\CC[C@@]1(C)O[C@@H]21", 101),
    ("COc1ccc(NC(=O)COCCOCCNC[C@@H]2C(=O)O[C@H]3[C@H]2CC/C(COC(=O)OC/C2=C/CC[C@@]4(C)O[C@H]4[C@H]4OC(=O)[C@@H](CN(C)C)[C@@H]4CC2)=C\\CC[C@@]2(C)O[C@@H]32)c(O)c1C(N)=O", 56.8),
    ("COc1cc(Cn2cc3c(c2)-c2onc(CO)c2CC3)cc(OC)c1OC", 98.6),
    ("COc1ccc(C2=NN(C(=O)COc3ccc(Cl)cc3)C(O)(c3cc(F)c(Cl)cc3Cl)C2)cc1OC (stereo not given)", -76),
]

Now take the following molecule into account.
For this molecule ( C=C1C(=O)O[C@H]2[C@H]1CC/C(COC(=O)c1cccc3ccccc13)=C\CC[C@@]1(C)O[C@@H]21 ), measured growth is -45.1

###

Listing: growth of selected compounds
system: A549/ATCC NSCLC; assay: NCI-60 one-dose screen, 48 h (100 = growth as untreated, 0 = no growth, -100 = all killed); conditions: 10 µM unless noted
About 83,000 compounds went through this panel and 20% of them were active in at least one assay; those are over-represented in the sample as a whole.
Give just the numeric value; % need not be written.

Consider the reported growth for these compounds:
# compound, endpoint, readoutUnit, numericReadout
rows = [
    ("CCCCOc1c(N)cccc1C(=O)OCCN(CC)CC", "growth", "%", 97.4),
    ("CCC1(C(N)=O)CC2C=CC1CC2 (stereo not given)", "growth", "%", 102),
    ("CC1=C2C(=C[C@@](C)(CO)[C@@H]2OC(=O)N(C)CCN(C)C(=O)OC(C)(C)C)C(=O)[C@](C)(O)C12CC2", "growth", "%", 10.4),
    ("CCCCNC(=O)Oc1ccc(/C(=C(/CC)Cc2ccccc2)c2ccc(OCCCN(C)C)cc2)cc1", "growth", "%", 69.5),
    ("COCCNC(C(=O)c1ccccc1)c1ccccc1 (stereo not given)", "growth", "%", 99.8),
]

For this compound ( Cc1nssc1=S ), measured growth is 111

For this compound ( CCN(CC)CCNC(=O)c1c(C)[nH]c(/C=C2\C(=O)Nc3cc(NC(=O)NC(=O)c4ccc(OC)cc4F)ccc32)c1C ), measured growth is 85.3

For this compound ( CCN(CC)C(=O)C1CCN(C(=O)c2ccccc2)CC1 ), measured growth is 104

For this compound ( COc1cc(CN(c2ccc(Cl)cc2)C2OC(=O)c3ccccc32)cc(OC)c1OC (stereo not given) ), measured growth is 39.7

For this compound ( COc1ccc2c(c1)C(=O)/C(=C/c1cccc(OCC(=O)c3ccccc3)c1)O2 ), measured growth is 105

###

system: SF-295 CNS; test: NCI-60 one-dose screen, 48 h (100 = growth as untreated, 0 = no growth, -100 = all killed); conditions: 10 µM unless noted
Compounds without any hit were thinned out: in the full panel of roughly 83,000, 20% have a hit.
Listing: growth of selected molecules
Give just the numeric value; % need not be written.

Consider the reported growth for these molecules:
# molecule, growth, %
measured = [
    ("COc1ccc(-c2coc3c(CO)c(O)ccc3c2=O)cc1", 23.1),
    ("CC(C)(C)NCC(O)COc1c(Br)c(Br)c(Br)c2c1OC(C)(C)C2 (stereo not given)", -63),
    ("COc1ccccc1NC(=O)COc1ccc(/C=C2/Oc3cc4occc4c(OC)c3C2=O)cc1OC", 103),
    ("C#CCn1c(-c2cc(OC)c(OC)cc2Br)nc(-c2ccccc2)c1-c1ccccc1", 21.6),
    ("O=C(Nc1ccc(F)cc1)Nc1ccc(Cl)c([N+](=O)[O-])c1", 8.17),
]

For this molecule ( C[C@H]1C=C(C[C@@H](O)CC#CC#CCCCCC[C@@H](O)[C@H]2CCC(=O)O2)C(=O)O1 ), measured growth is 106

For this molecule ( CCCCN(CCCC)c1ccc(C(=N)c2ccc(N(C)C)cc2)cc1 ), measured growth is -72.1

For this molecule ( Nc1ncnc2c1ncn2C1OC(COC(c2ccccc2)(c2ccccc2)c2ccccc2)C(O)C1O (stereo not given) ), measured growth is 48.1

For this molecule ( NC(=S)NNC1CCCCC1 ), measured growth is 96.4

For this molecule ( CCOC(=O)C(C)(CSSCC(C)(NC(=O)c1ccc2ccccc2c1)C(=O)OCC)NC(=O)c1ccc2ccccc2c1 (stereo not given) ), measured growth is 96.2

###

system: SNB-75 CNS; experiment: NCI-60 one-dose screen, 48 h (100 = growth as untreated, 0 = no growth, -100 = all killed); details: 10 µM unless noted
This is part of a sample that, as a whole, favours compounds with a hit. Of some 83,000 tested, about 20% had one in any assay.
Listing: growth of selected compounds
Give just the numeric value; % need not be written.

# compoundStructureString, targetSystem, growth / %
rows = [
    ("Nc1nccc2c1ccn2-c1ccc(NC(=O)Nc2cccc(C(F)(F)F)c2)cc1", "SNB-75 CNS", 89),
]

For this compound ( CN(C)c1ccc(/C=N/n2c(-c3cc(F)c(Cl)cc3Cl)nn(CN3CCOCC3)c2=S)cc1 ), measured growth is 97.7

For this compound ( CN(C)CCS(=O)(=O)Nc1cc(-c2ccc3ncnc(Nc4ccc(F)c(Cl)c4)c3c2)cnc1Cl ), measured growth is 9.33

For this compound ( Cc1ncc(CO)c(C(=O)O)c1O ), measured growth is 93.4

For this compound ( COc1ccc(N)c(S)c1 ), measured growth is 84.6
